Data origin: PubChem BioAssay AID1851

# measured.target: Cytochrome P450 1A2 (Homo sapiens)
# test.details: Cytochrome panel assay with activity outcomes
# experimental.setup: recombinant CYP, pro-luciferin dealkylation, luminescence, p450-cyp1a2; series mostly up to 57.1 µM
The campaign covered roughly 16,000 compounds. About 5,700 (36%) were called active. About 24% were inconclusive and are not listed. Calls come from the whole dose curve; as a rule, active = well fitted curve in the direction sought with a large enough effect; inconclusive = small, poorly fitted or top-dose-only effect, or effect the other way; inactive = no such curve, though single readings can be large or run the other way. The list shows a part of the results.
Possible outcomes: active, inactive

COc1ccc(NC(=O)N2CCCC3(CCN(C(=O)c4cnccn4)CC3)C2)cc1 = inactive
c1ccc(CNc2cc(-c3ccoc3)ncn2)cc1 = active
COc1ccc(NC(=O)C2(c3ccc(NC(=O)c4ccc(OC(C)=O)cc4)cc3)CCCC2)cc1 = inactive
CCC1(c2ccccc2)C(=O)NCNC1=O = inactive
Cc1c(CCO)c(=O)n(C)n1C(=O)c1ccc(F)cc1 = inactive
CCn1c(-c2ccccc2Cl)nn(CC(=O)Nc2ccccc2OC)c1=S = inactive
COc1ccc(C(=O)Nc2cccc(OC(=O)c3ccc(C)c(C)c3)c2)cc1 = active
CCC(=O)Nc1ccc2c(c1)C(=O)c1ccccc1C2=O = active
CNc1ncnc2c1ncn2[C@H]1C[C@@H](OP(=O)(O)O)[C@H](COP(=O)(O)O)O1 = inactive
NC(=NCCC[C@H](N)C(=O)O)NO = inactive
CCS(=O)(=O)c1ccc2oc(Nc3cc(C)cc(C)c3)nc2c1 = active
CCc1cc2c(NCCO)ncnc2s1 = active
COc1ccc(-c2nc3cnc(N4CCNCC4)nc3n(Cc3ccc(F)cc3)c2=O)cc1 = inactive
COc1ccc(C(=O)N2CCC3(CC2)CN(c2ccncc2)C3)cc1 = inactive
CCOC(=O)N1CCC(NC(=O)CSCc2cnn(-c3ccccc3)c2-n2cccc2)CC1 = inactive
O=C(NNS(=O)(=O)c1ccc(Cl)cc1)c1cnn(-c2ccccc2)c1-n1cccc1 = active
O=c1c(-c2ccc(F)cc2)nc2cnc(N3CCNCC3)nc2n1Cc1ccc(F)cc1 = active
COc1ccccc1CN1CC2(CCN(C(=O)c3cnccn3)CC2)C1 = inactive
COc1ccc(OC(=O)c2ccncc2)cc1 = active
Cc1cc(-c2cc(-c3ccc(Cl)cc3)nc(N)c2C#N)co1 = active
COC(=O)c1cc(=O)n(C2CC2)c(=NC2CC2)s1 = active
O=C(Nc1c(C(=O)N2CCOCC2)cnn1-c1ccccc1)c1ccco1 = inactive
Cc1nc2cnc(N3CCN(C)CC3)nc2n(Cc2ccc(F)cc2)c1=O = inactive
COc1ccc(-c2cc(C(F)(F)F)n3nc(C(=O)N4CCCCC4)cc3n2)cc1 = active
COc1ccc(-c2nc3cnc(N4CCN(C)CC4)nc3n(CCC#N)c2=O)cc1 = inactive
COc1ccc(/C=C(/NC(C)=O)C(=O)O)cc1 = inactive
Cc1ccc(C2C(C(=O)c3ccco3)=C(O)C(=O)N2c2nnc(C)s2)cc1 (stereo not drawn) = inactive
CC(C)NCCCOc1ccc(Cl)cc1Br = active
Fc1ccc(Nc2ccnc(-c3ccccc3C(F)(F)F)n2)cc1 = active
c1cncc(CNc2cc(-c3ccoc3)ncn2)c1 = active
COc1ccc(/C=C/c2ccncc2)cc1 = active
O=[N+]([O-])c1ccc(C2=Nn3c(nnc3-c3ccc(Cl)cc3)SC2)o1 = active
O=C(O)c1nn(-c2ccccc2)nc1-c1nn(-c2ccccc2)nc1C(=O)O = inactive

====

# measured.target: Cytochrome P450 1A2 (Homo sapiens) (UniProt P05177)
# Sequence (P05177 whole entry, looked up): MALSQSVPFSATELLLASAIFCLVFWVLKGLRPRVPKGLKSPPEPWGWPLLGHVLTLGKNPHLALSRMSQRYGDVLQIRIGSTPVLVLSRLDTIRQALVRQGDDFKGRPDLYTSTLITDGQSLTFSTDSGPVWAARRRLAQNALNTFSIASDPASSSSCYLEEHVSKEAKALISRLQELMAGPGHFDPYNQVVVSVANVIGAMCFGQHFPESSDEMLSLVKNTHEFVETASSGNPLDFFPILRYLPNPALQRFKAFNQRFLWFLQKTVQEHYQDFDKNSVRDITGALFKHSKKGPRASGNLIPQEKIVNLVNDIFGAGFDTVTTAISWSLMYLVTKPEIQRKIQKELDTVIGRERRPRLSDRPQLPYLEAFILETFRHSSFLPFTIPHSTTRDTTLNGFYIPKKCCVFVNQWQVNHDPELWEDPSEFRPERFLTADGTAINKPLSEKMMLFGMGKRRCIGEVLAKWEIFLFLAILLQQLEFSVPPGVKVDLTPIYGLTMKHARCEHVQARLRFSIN
# test.details: Cytochrome panel assay with activity outcomes
# experimental.setup: recombinant CYP, pro-luciferin dealkylation, luminescence, p450-cyp1a2; series mostly up to 57.1 µM
Out of some 16,000 compounds screened, about 5,700 (36%) were called active. Not shown: some 24% with an inconclusive outcome. Calls come from the whole dose curve; as a rule, active = well fitted curve in the direction sought with a large enough effect; inconclusive = small, poorly fitted or top-dose-only effect, or effect the other way; inactive = no such curve, though single readings can be large or run the other way. Some of the results follow.
Outcomes: active, inactive

CCOc1c(OC(C)=O)ccc(/C=C2\N=C(SCC)SC2=O)c1[N+](=O)[O-] = active
Cc1scc2c1N(C(=O)CN1CCN(C)CC1)c1ccccc1NC2=O = inactive
CCOC(=O)C1=NNC2(c3ccc(Cl)cc3)C(=O)N(c3cc(C)cc(C)c3)C(=O)C12 (stereo unspecified) = inactive
CCOc1c(OC(C)=O)ccc(/C=C/c2ccc3cccc(OC(C)=O)c3n2)c1[N+](=O)[O-] = active
Cc1cc(Cl)ccc1OCC(=O)NCc1ccncc1 = active
CNc1ncnc2c1ncn2[C@@H]1O[C@@H](CO)[C@H](O)[C@@H]1O = inactive
Cc1cc(Nc2ccc(Cl)cc2)nc(N)n1 = active
Nc1cc2c(nc3c4ccccc4c(N)cc3[n+]2-c2cccc3ccccc23)c2ccccc12 (tested in a mixture with another compound) = active
CCCCCCCCCCCCCCCCCCNC(=O)OC[C@@H](COP(=O)([O-])OCC[n+]1ccsc1)OC = inactive
CCOC(=O)c1cc(CC)sc1NC(=O)c1cc(OCC)c(OCC)c(OCC)c1 = inactive
NC(=O)c1ccc(N2CCCCC2)c(N2C(=O)C3CC=CCC3C2=O)c1 (stereo unspecified) = inactive
NCC(=O)Nc1ccc(Cl)cc1C(=O)c1ccc[nH]1 = active
CC1(C)CCC=[N+]1[O-] = inactive
Cc1ccccc1-c1ccc2ncnc(N3CCN(C)CC3)c2c1 = active
O=C(COc1cccc2ccccc12)N1c2ccccc2CCc2ccccc21 = active
O=c1cc(-c2ccccc2)oc2cc(O)c(O)c(O)c12 = active
CCOC(=O)c1cc(CC)sc1NC(=O)C(c1ccccc1)c1ccccc1 = inactive
CCN(CC)c1ccc(SS(=O)(=O)O)cc1 = inactive
CCN(CC)CCC(=O)Nc1ccc2c(c1)N(C(=O)CN(CC)CC)c1ccccc1CC2 = inactive
Cc1cccn2c(/C=N/OCc3ccc(F)cc3)c(-c3ccc(Cl)cc3)nc12 = active
Cc1cccn2c(/C=N/OCc3cccc(F)c3)c(-c3ccc(Cl)cc3)nc12 = active
CCCCCCCCCCCCCCCC(=O)NC[C@@H](COP(=O)([O-])OCC[N+](C)(C)C)OCC = inactive
Cc1ccc(S(=O)(=O)N2CCN(Cc3ccccc3C(F)(F)F)CC2)cc1 = inactive
COCCOC(=O)C1=C(C)NC(=O)N(C(C)=O)C1c1ccc(Cl)cc1 (stereo unspecified) = inactive
COCC(=O)N1CCC2(CC1)CCN(C(c1ccccc1)c1ccccc1)CC2 = inactive
CCCN=Cc1c(CCC)[nH]n(-c2nc3ccccc3s2)c1=O = active
N#Cc1ccccc1-c1cncnc1NCc1cccnc1 = active
CC1(C)CC(=O)C2=C(C1)Oc1nc3ccccc3cc1C2C(C#N)C#N (stereo unspecified) = active
CN1CCC(=C2c3ccccc3Sc3ccccc32)CC1 = inactive
CCCn1nnnc1NC(=O)COc1ccc(Cl)cc1C = active
CC(Sc1nnc(C(C)N(C)C)n1-c1ccc(Cl)cc1)C(=O)Nc1ccc2c(c1)OCO2 (stereo unspecified) = active
COc1ccc2[nH]cc(CCNc3ccnc(-c4ccccc4C)n3)c2c1 = active
Cc1nnc(SCC(=O)N2CC(=O)Nc3ccccc32)n1Cc1ccccc1 = inactive
CC(C)(C)OC(=O)COc1cc(OCC(=O)OC(C)(C)C)c2c(=O)cc(-c3ccccc3)oc2c1 = inactive
Cc1ccc(NC(=O)c2cc(N3C(=O)C4CC=CCC4C3=O)ccc2N2CCOCC2)cc1Cl (stereo unspecified) = active
CCOC(=O)C1=C(C)N=C2c3ccccc3C(=O)C2C1c1ccc(C)cc1 (stereo unspecified) = active
